# Assay system: Adenosine receptor A1 (Homo sapiens) (UniProt P30542)
# Sequence (P30542 whole entry): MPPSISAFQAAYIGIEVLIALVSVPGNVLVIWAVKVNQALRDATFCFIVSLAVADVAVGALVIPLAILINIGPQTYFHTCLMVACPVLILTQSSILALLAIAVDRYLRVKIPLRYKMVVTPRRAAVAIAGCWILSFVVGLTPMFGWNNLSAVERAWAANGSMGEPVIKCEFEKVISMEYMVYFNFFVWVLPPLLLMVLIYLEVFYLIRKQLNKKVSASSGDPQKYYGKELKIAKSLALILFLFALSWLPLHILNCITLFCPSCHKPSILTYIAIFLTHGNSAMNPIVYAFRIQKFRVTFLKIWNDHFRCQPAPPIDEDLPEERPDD
# Test name: Allosteric enhancer activity at human adenosine A1 receptor expressed in CHO cells assessed as inhibition of forskolin-induced cAMP production at 10 uM
# Format: functional, cell-based
# if value of inhibition reaches 70%, tag YES; if it stays below, tag NO

Before answering, review these 5 worked examples.
>  <Record smiles>
CC(C)(C)Cc1c(C#CC2CCCCC2)sc(N)c1C(=O)c1ccc(Cl)cc1

>  <Assay system>
Adenosine receptor A1 (Homo sapiens) (UniProt P30542)

>  <Assigned class>
NO

$$$$
>  <Record smiles>
Cc1ccc(C)c(C#Cc2sc(N)c(C(=O)c3ccc(Cl)cc3)c2CC(C)(C)C)c1

>  <Assay system>
Adenosine receptor A1 (Homo sapiens) (UniProt P30542)

>  <Assigned class>
NO

$$$$
>  <Record smiles>
CC(C)(C)Cc1c(CCc2ccccc2)sc(N)c1C(=O)c1ccc(Cl)cc1

>  <Assay system>
Adenosine receptor A1 (Homo sapiens) (UniProt P30542)

>  <Assigned class>
NO

$$$$
>  <Record smiles>
CC(C)(C)Cc1c(C#Cc2ccccc2)sc(N)c1C(=O)c1ccc(Cl)cc1

>  <Assay system>
Adenosine receptor A1 (Homo sapiens) (UniProt P30542)

>  <Assigned class>
YES

$$$$
>  <Record smiles>
Nc1sc(CCc2ccccc2)c(-c2ccccc2)c1C(=O)c1ccc(Cl)cc1

>  <Assay system>
Adenosine receptor A1 (Homo sapiens) (UniProt P30542)

>  <Assigned class>
NO

$$$$

Is inhibition at least 70%? Consider "CC(C)(C)Cc1c(C#Cc2ccsc2)sc(N)c1C(=O)c1ccc(Cl)cc1"
NO
